These data points were gathered from ChEMBL document CHEMBL1697781.

- Tested on: Hepatotoxicity
- EXPERIMENTAL_PROTOCOL: FDA HLAED, alkaline phosphatase increase
- MEASUREMENT_CONDITIONS: human
Provide the recorded Alkaline Phosphatase Increase - Index Value for the entries that follow.
Could you keep your reply to the number by itself?

Answer with Alkaline Phosphatase Increase - Index Value of Oc1ncnc2[nH]ncc12 measured for Hepatotoxicity.
4.7

Answer with Alkaline Phosphatase Increase - Index Value of CC(C)(C)NC[C@H](O)COc1nsnc1N1CCOCC1 measured for Hepatotoxicity.
0.1

Answer with Alkaline Phosphatase Increase - Index Value of CCN[C@@H](C)Cc1cccc(C(F)(F)F)c1 measured for Hepatotoxicity.
0.2

Answer with Alkaline Phosphatase Increase - Index Value of CCN(CC)CCNC(=O)c1ccc(N)cc1 [PROCAINAMIDE] measured for Hepatotoxicity.
0

Answer with Alkaline Phosphatase Increase - Index Value of COc1ccc(-c2ccc3cc(C(=O)O)ccc3c2)cc1C12CC3CC(CC(C3)C1)C2 measured for Hepatotoxicity.
0

Answer with Alkaline Phosphatase Increase - Index Value of COc1ccc(CC2c3cc(OC)c(OC)cc3CC[N+]2(C)CCC(=O)OCCCCCOC(=O)CC[N+]2(C)CCc3cc(OC)c(OC)cc3C2Cc2ccc(OC)c(OC)c2)cc1OC (centres undefined) measured for Hepatotoxicity.
0

Answer with Alkaline Phosphatase Increase - Index Value of CC(C)(C)c1ccc(C(O)CCCN2CCC(C(O)(c3ccccc3)c3ccccc3)CC2)cc1 (centres undefined) measured for Hepatotoxicity.
0.6

Answer with Alkaline Phosphatase Increase - Index Value of CC(=O)NO [ACETOHYDROXAMIC ACID] measured for Hepatotoxicity.
0

Answer with Alkaline Phosphatase Increase - Index Value of Cc1ccc(C(=O)Oc2ccc(C(O)CNC(C)(C)C)cc2OC(=O)c2ccc(C)cc2)cc1 (centres undefined) measured for Hepatotoxicity.
0

---

- Test system: Hepatotoxicity
- EXPERIMENTAL_PROTOCOL: FDA HLAED, serum glutamic pyruvic transaminase (SGPT) increase
- MEASUREMENT_CONDITIONS: human
ENDPOINT_LABEL: SGPT Increase - Activity Score

Please review the following examples before continuing.
COMPOUND	ENDPOINT_LABEL	READOUT_VALUE
CC(CCc1ccccc1)NCC(O)c1ccc(O)c(C(N)=O)c1 (stereo not given) [LABETALOL]	SGPT Increase - Activity Score	Inactive
CCOC(=O)N1CCC(=C2c3ccc(Cl)cc3CCc3cccnc32)CC1 [LORATADINE]	SGPT Increase - Activity Score	Inactive
CO/N=C(\C(=O)N[C@@H]1C(=O)N2C(C(=O)[O-])=C(C[N+]3(C)CCCC3)CS[C@H]12)c1csc(N)n1	SGPT Increase - Activity Score	Active
Cc1ccnc2c1NC(=O)c1cccnc1N2C1CC1 [NEVIRAPINE]	SGPT Increase - Activity Score	Active
CC(=O)CCCCn1c(=O)c2c(ncn2C)n(C)c1=O [PENTOXIFYLLINE]	SGPT Increase - Activity Score	Inactive
Nc1nc2ccc(OC(F)(F)F)cc2s1 [RILUZOLE]	SGPT Increase - Activity Score	Inactive
NCC1(CC(=O)O)CCCCC1 [GABAPENTIN]	SGPT Increase - Activity Score	Inactive
FC(F)OC(F)C(F)(F)F (stereo not given)	SGPT Increase - Activity Score	Inactive

Give the reported value of SGPT Increase - Activity Score for this record: Nc1c2c(nc3ccccc13)CCCC2 [TACRINE]
Active

Give the reported value of SGPT Increase - Activity Score for this record: CN(Cc1ccc(C(C)(C)C)cc1)Cc1cccc2ccccc12 [BUTENAFINE]
Inactive
